# growth annotations
- Tested on: MDA-MB-468 breast
- EXPERIMENT SUMMARY: NCI-60 one-dose screen, 48 h (100 = growth as untreated, 0 = no growth, -100 = all killed)
- TEST CONDITIONS: 10 µM unless noted
About 83,000 compounds went through this panel and 20% of them were active in at least one assay; those are over-represented in the sample as a whole. Calls of active or inactive are those of the source. Rule for the calls: active = growth percent below 10; inactive = the rest.
MEASUREMENT TYPE: growth

[[record]]
compound = "Cc1c(O)cnc2nn(-c3ccccc3)c(=N)n12"
measurement_type = "growth"
recorded_result = "108% (inactive)"

[[record]]
compound = "CCCCC(=O)OCC1OC(n2cnc3c(=S)nc[nH]c32)C(OC(=O)CCCC)C1OC(=O)CCCC (configuration not stated)"
measurement_type = "growth"
recorded_result = "67.4% (inactive)"

[[record]]
compound = "Cc1nnc2c3nnc(-c4ccc(Cl)cc4)n3c3ccccc3n12"
measurement_type = "growth"
recorded_result = "100% (inactive)"

[[record]]
compound = "C=C(C)C(C(=O)OCC)(C(=O)OCC)C(C)C"
measurement_type = "growth"
recorded_result = "109% (inactive)"

[[record]]
compound = "CCC(NC(c1cc2cccc3ccc4cccc1c4c32)c1nnnn1C(C)(C)C)C1CCCCC1 (configuration not stated)"
measurement_type = "growth"
recorded_result = "7.35% (active)"

[[record]]
compound = "COc1ccc(-c2cnoc2-c2ccc(OC)cc2O)cc1"
measurement_type = "growth"
recorded_result = "1% (active)"

[[record]]
compound = "COc1ccc(/C=N/Nc2cc(=O)[nH]c3ccc(C)cc23)cc1"
measurement_type = "growth"
recorded_result = "101% (inactive)"

[[record]]
compound = "C/C(=C\\CCc1ccoc1)CC/C=C(\\C)CCCNc1ccc(F)cc1"
measurement_type = "growth"
recorded_result = "89.8% (inactive)"

[[record]]
compound = "CC(C)(C)CC(C)(C)Cc1ccc(OCCOCC[N+](C)(C)Cc2ccccc2)cc1"
measurement_type = "growth"
recorded_result = "-35.3% (active)"

[[record]]
compound = "C=CCN=C1NC(=O)/C(=C/c2cc(C(C)(C)C)c(O)c(C(C)(C)C)c2)S1"
measurement_type = "growth"
recorded_result = "43.4% (inactive)"

[[record]]
compound = "Cc1ncc(CO)c(C(=O)O)c1O"
measurement_type = "growth"
recorded_result = "108% (inactive)"

[[record]]
compound = "O=C(O)/C(=C\\c1ccc(Cl)cc1)c1ccc(Cl)cc1"
measurement_type = "growth"
recorded_result = "78.9% (inactive)"

[[record]]
compound = "Oc1c(Br)cc(Br)c2ccc(Cn3cc(-c4ccccc4C(F)(F)F)nn3)nc12"
measurement_type = "growth"
recorded_result = "72.4% (inactive)"

[[record]]
compound = "COc1cccc(O)c1/C=C1\\SCc2cc3c(OC)cccc3[o+]c21"
measurement_type = "growth"
recorded_result = "112% (inactive)"

[[record]]
compound = "CN(C)Cc1cn(-c2ncc(-c3ccc(C(F)(F)F)cc3)c(NC3CCCCCC3)n2)nn1"
measurement_type = "growth"
recorded_result = "82.9% (inactive)"

[[record]]
compound = "N#Cc1c(-c2cccs2)cc(-c2cnccn2)nc1SCC(=O)N/N=C/c1cccs1"
measurement_type = "growth"
recorded_result = "64.6% (inactive)"

[[record]]
compound = "OCCOCCN(Cc1ccccn1)Cc1cc(I)cc(I)c1O"
measurement_type = "growth"
recorded_result = "88% (inactive)"

[[record]]
compound = "C=C1C(=O)O[C@H]2[C@H]1CC/C(C=Nc1c(N)cc(C(F)(F)F)cc1Br)=C\\CC[C@@]1(C)O[C@@H]21"
measurement_type = "growth"
recorded_result = "-16.6% (active)"

[[record]]
compound = "NC(=O)c1ncn2c(=O)n(CCF)nnc12"
measurement_type = "growth"
recorded_result = "48.4% (inactive)"

[[record]]
compound = "Cc1nc2cccc(NCc3ccc(C(=O)NO)cc3)c2c(=O)n1-c1ccccc1"
measurement_type = "growth"
recorded_result = "-15.3% (active)"

[[record]]
compound = "CN=C(N)N/N=C(\\C)c1ccc2c(c1)Cc1cc(/C(C)=N/NC(N)=NC)ccc1-2"
measurement_type = "growth"
recorded_result = "-90.7% (active)"

[[record]]
compound = "COc1cc(/C=C/C(=O)c2cc(OC)c(OC)c(OC)c2)ccc1Oc1nc2c(c(=O)n(C)c(=O)n2C)n1C"
measurement_type = "growth"
recorded_result = "-72% (active)"


----------
- System: MDA-MB-468 breast
- EXPERIMENT SUMMARY: NCI-60 one-dose screen, 48 h
- TEST CONDITIONS: 10 µM unless noted
About 83,000 compounds went through this panel and 20% of them were active in at least one assay; those are over-represented in the sample as a whole. Activity calls are given as the source filed them. How the source made its calls: active means growth percent below 10; inactive means the rest.
Possible outcomes: active, inactive

[[record]]
compound = "CC(=O)OCC(=O)[C@@]1(O)CC[C@H]2[C@@H]3CC(=C(Br)Br)C4=CC(=O)CC[C@]4(C)[C@H]3C(=O)C[C@@]21C"
label = "inactive"

[[record]]
compound = "O=C(CSc1nnc(-c2cc3c([nH]c4ccccc43)c(-c3cccc(O)c3)n2)n1-c1ccccc1)c1ccccc1"
label = "inactive"

[[record]]
compound = "CCOC(=O)C1=C(C)N2C(=NC3=C(CCCC/C3=C\\c3cc(OC)c(OC)c(OC)c3)C2c2cc(OC)c(OC)c(OC)c2)S1 (stereo not given)"
label = "inactive"

[[record]]
compound = "OCCNc1ccccc1"
label = "inactive"

[[record]]
compound = "CN(C)CCCC1(c2ccc(F)cc2)OCc2cc(-c3ccc4cc[nH]c4c3)ccc21 (stereo not given)"
label = "active"

[[record]]
compound = "CCOC(=O)C1C(=O)C(=O)N(C(C)C)C1C(=O)OCC (stereo not given)"
label = "inactive"

[[record]]
compound = "CN1C(=O)NC(c2ccc(Cl)cc2)(c2ccc(Cl)cc2)C1=O"
label = "inactive"

[[record]]
compound = "CN(C)CCNC(=O)c1ccc(-c2nc3ccc4[nH]ncc4c3c3c2CCC3)cc1"
label = "active"

[[record]]
compound = "Cn1c(=O)c2[nH]c(C(O)c3ccc(Cl)cc3)nc2n(C)c1=O (stereo not given)"
label = "inactive"

[[record]]
compound = "CC(=O)N1N=C(c2cccc(Nc3ccncc3)c2)CC1c1ccccc1 (stereo not given)"
label = "inactive"

[[record]]
compound = "Cn1cc(-c2nonc2-c2c[nH]c3ccccc23)c2cc(Br)ccc21"
label = "inactive"

[[record]]
compound = "Oc1ccccc1/C=N/NC(=S)NC1CC2C=CC1C2 (stereo not given)"
label = "inactive"

[[record]]
compound = "CNC(=S)N/N=C/CSC/C=N/NC(=S)NC"
label = "inactive"

[[record]]
compound = "C=C1CCC2C3(C)COC(c4ccccc4)OC3CCC2(C)C1/C=C/C1=CCOC1=O (stereo not given)"
label = "inactive"

[[record]]
compound = "CCCCC1=C(P(=O)(O)O)N[C@H](C(=O)O)CS1"
label = "inactive"

[[record]]
compound = "O=c1cc(-c2nccc3c2[nH]c2ccccc23)c2cc(Cl)ccc2o1"
label = "active"

[[record]]
compound = "CC(C)(C)n1cc(-c2ccnc(NCCCNS(=O)(=O)c3ccc(Br)cc3)c2)c(-c2cccc(O)c2)n1"
label = "active"

[[record]]
compound = "COc1cc2cc(Oc3ccc(NC(=O)Nc4cc(C(F)(F)F)cc(C(F)(F)F)c4)cc3)c(C)nc2cc1OCCN(C)C"
label = "inactive"

[[record]]
compound = "CCc1ccc(Oc2c(-c3ccc(OCc4ccc(Cl)cc4)cc3O)nn(C)c2C(F)(F)F)cc1"
label = "active"

[[record]]
compound = "c1ccc2c(c1)[nH]c1c2cc[n+]2cc3c(cc12)CCCC3"
label = "active"

[[record]]
compound = "Nc1ccc2c(c1)Cc1cc(NC(=O)C(F)(F)F)ccc1-2"
label = "inactive"

[[record]]
compound = "CCn1c(SC/C(=N/O)c2ccccc2)nnc1-c1ccccc1"
label = "inactive"

[[record]]
compound = "C=C1C(=O)O[C@H]2[C@H]1CC/C(COC(=O)CCC(=O)NCCOCCOCC(=O)Nc1ccc(OC)c(C(N)=O)c1O)=C\\CC[C@@]1(C)O[C@@H]21"
label = "active"

[[record]]
compound = "CCOC(=O)c1c(C)oc2ncnc(Nc3ccc(NC(=O)Nc4cccc(Cl)c4)cc3)c12"
label = "inactive"

[[record]]
compound = "CCOC(=O)c1c(C)nc2c(c1N)/C(=C/c1cccs1)C(=O)N2c1ccc(OC)cc1"
label = "inactive"

[[record]]
compound = "Clc1cc(Cl)c(OCCCCCCN2CCNCC2)c(Cl)c1"
label = "active"

[[record]]
compound = "CCOCCOCCOCCOCCOCCOCCOCCOCCOCCO (tested in a mixture with another compound)"
label = "active"

[[record]]
compound = "CCCCNC(=O)Oc1ccc(/C(=C(\\C)c2ccc(Cl)cc2)c2ccc(OCCN(CC)CC)cc2)cc1"
label = "inactive"

[[record]]
compound = "COc1ccc(C(=O)c2nc3ccccc3n2CC(=O)c2ccc(F)cc2)cc1"
label = "inactive"

[[record]]
compound = "CC1CC(O)CC(C)(C)C1.CC1CC(O)CC(C)(C)C1.CC1CC(O)CC(C)(C)C1.CC1CC(O)CC(C)(C)C1.[Ti] (stereo not given)"
label = "inactive"

[[record]]
compound = "CC(=O)Nc1ccc(Cl)cc1Cl"
label = "inactive"

[[record]]
compound = "CCN(CC)CCCN1C(=O)c2c(c(C)c3c(oc4cc(O)ccc43)c2C)C1=O"
label = "inactive"

[[record]]
compound = "O=C(/C=C/C12c3ccccc3C(c3ccccc31)C1C(=O)NC(=O)C12)c1ccc(I)cc1 (stereo not given)"
label = "inactive"

[[record]]
compound = "O=S(=O)(NCCCNc1cc(-c2cn(-c3ccccc3)nc2-c2cccc(O)c2)ccn1)c1cccc(F)c1"
label = "active"

[[record]]
compound = "CCOC(=O)C1=C(C)N=C2Sc3cccc(OC)c3N2[C@H]1c1ccccn1"
label = "inactive"

[[record]]
compound = "COc1ccc2[nH]cc(-c3nc(-c4cn(C)c5ccncc45)cs3)c2c1"
label = "inactive"

[[record]]
compound = "NC(=S)CN1CCOCC1"
label = "inactive"

[[record]]
compound = "COc1ccc(Cc2nnc(Nc3nc4ccccc4s3)s2)cc1"
label = "inactive"

[[record]]
compound = "COc1cc(C2NC(c3cc(OC)c(OC)c(OC)c3)C(C#N)(C#N)C2(C#N)C#N)cc(OC)c1OC (stereo not given)"
label = "inactive"

[[record]]
compound = "COC(=O)c1c(C)c2n(c1C)C(=O)C(c1ccccc1)=C2"
label = "inactive"

